Overview of recorded avg F635, Left Part Centroid for various compounds
Biological target: KRAS (Homo sapiens)
Construct: His6-tagged human KRas Isoform 4B (residues 1-169); His6; made in house; host or cells: E. coli BL21(DE3), PQE80 vector
Sequence (P01116 1-169 isoform P01116-2): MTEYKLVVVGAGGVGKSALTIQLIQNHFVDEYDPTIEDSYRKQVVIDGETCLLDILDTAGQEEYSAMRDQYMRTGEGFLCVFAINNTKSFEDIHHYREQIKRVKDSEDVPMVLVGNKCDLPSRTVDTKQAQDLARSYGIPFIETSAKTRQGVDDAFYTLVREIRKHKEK
Assay: B-RAP surface immunofluorescent assay, PCC ligand KRas EC50
Format: binding
Conditions: 10 μM KRas well of plate #1, pixel by pixel, left part of centroid

Compound: CC(C)[C@@H]1NC(=O)[C@@H](N)Cc2cn(nn2)CCCC[C@@H](C(=O)NCCOCCOCCOCCOCCOCCC(=O)NCCNC(=O)CCCC[C@@H]2SC[C@@H]3NC(=O)N[C@@H]32)NC(=O)[C@H](Cc2ccc(O)cc2)NC(=O)[C@@H]2CCCN2C(=O)[C@H](C(C)C)NC(=O)[C@H](CCC(=O)O)NC1=O (single isomer, unassigned) [Ligand L4a, VEVPY]
Tested target: KRAS (Homo sapiens)
avg F635, Left Part Centroid: 10179
//
Compound: CC(C)[C@@H]1NC(=O)[C@@H](N)Cc2cn(nn2)CCCC[C@@H](C(=O)NCCOCCOCCOCCOCCOCCC(=O)NCCNC(=O)CCCC[C@@H]2SC[C@@H]3NC(=O)NC32)NC(=O)[C@H](Cc2ccc(O)cc2)NC(=O)[C@@H]2CCCN2C(=O)[C@H](C(C)C)NC(=O)[C@H](CCC(N)=O)NC1=O (single isomer, unassigned) [Ligand L7b, VQVPY]
Tested target: KRAS (Homo sapiens)
avg F635, Left Part Centroid: 12956

Data origin: patent US20180284123A1
